Data credit: patent US10035800B2

Molecular target: BRD4 (BDII_E352-M457) (Homo sapiens, UniProt O60885)
Construct: protocol; made in house
Experiment: TR-FRET bromodomain binding assay, second bromodomain of BRD4
Settings: TR-FRET assay protocol G (compound 0.92 μM-15 pM); 30 nM probe
# note: exactly 1 nM is not below, so it is n; use y for Ki strictly under it

> print(dat)
                                    compound  qualitative.label
 1  CCS(=O)(=O)c1ccc2c(c1)-c1cn(C)c(=O)c3[nH]cc(c13)CN2[C@@H](C)c1ccccc1                  n
 2  CCC(=O)N1Cc2c[nH]c3c(=O)n(C)cc(c23)-c2cc(CS(C)(=O)=O)ccc21                  n
 3  Cn1cc2c3c(c[nH]c3c1=O)C(C(=O)NC1(CO)CC1)N(c1ccc(F)cc1F)c1ccc(CS(C)(=O)=O)cc1-2 (racemic)                  n
 4  Cn1cc2c3c(c[nH]c3c1=O)[C@@H](c1ccccc1)N(c1ccc(F)cc1F)c1ccc(CS(C)(=O)=O)cc1-2 (single isomer, unassigned)                  n
 5  Cn1cc2c3c(c[nH]c3c1=O)CN(C1CCC(NC(=O)OC(C)(C)C)CC1)c1ccc(S(C)(=O)=O)cc1-2 (stereo not drawn)                  n
 6  Cn1cc2c3c(c[nH]c3c1=O)CN(c1ccc(F)cc1)c1ncc(N)cc1-2                  n
 7  Cn1cc2c3c(c[nH]c3c1=O)C(CCN1C(=O)c3ccccc3C1=O)N(c1ccc(F)cc1F)c1ccc(CS(C)(=O)=O)cc1-2 (racemic)                  n
 8  COC(=O)NC1CCC(N2Cc3c[nH]c4c(=O)n(C)cc(c34)-c3cc(CS(C)(=O)=O)ccc32)CC1 (stereo not drawn) [Example 224]                  n
 9  Cn1cc2c3c(c[nH]c3c1=O)CN(Cc1ccccc1OCc1ccccn1)c1ccc(CS(C)(=O)=O)cc1-2                  n
10  Cn1cc2c3c(c[nH]c3c1=O)CN(C(=O)c1ccc3ccccc3c1)c1ccc(CS(C)(=O)=O)cc1-2                  n
11  Cn1cc2c3c(c[nH]c3c1=O)CN(c1ccc(F)cc1)c1ccc(CS(C)(=O)=O)cc1-2                  n
12  Cn1cc2c3c(c[nH]c3c1=O)CN(Cc1cccnn1)c1ccc(CS(C)(=O)=O)cc1-2                  n
13  CC(=O)OCC(CCC1c2c[nH]c3c(=O)n(C)cc(c23)-c2cc(CS(C)(=O)=O)ccc2N1c1ccc(F)cc1F)OC(C)=O (stereo not drawn)                  n
14  Cn1cc2c3c(c[nH]c3c1=O)CN(C(=O)OCC(C)(C)C)c1ccc(CS(C)(=O)=O)cc1-2                  n
15  Cn1cc2c3c(c[nH]c3c1=O)CN(Cc1ccccc1OCC(N)=O)c1ccc(CS(C)(=O)=O)cc1-2                  n
16  Cn1cc2c3c(c[nH]c3c1=O)CN(C(=O)Oc1ccc3ccccc3c1)c1ccc(CS(C)(=O)=O)cc1-2                  n
17  Cn1cc2c3c(c[nH]c3c1=O)CN(c1ncc(F)cn1)c1ccc(CS(C)(=O)=O)cc1-2                  n
18  Cn1cc2c3c(c(C(N)=O)[nH]c3c1=O)CN(c1ccc(F)cc1F)c1ccc(CS(C)(=O)=O)cc1-2                  y
19  Cn1cc2c3c(c[nH]c3c1=O)CN(c1ccc(Cl)cc1)c1ccc(CS(C)(=O)=O)cc1-2                  y
20  CCNC(=O)c1[nH]c2c(=O)n(C)cc3c2c1CN(c1ccc(F)cc1F)c1ccc(CS(C)(=O)=O)cc1-3                  y
21  COC(=O)CC[C@H]1c2c[nH]c3c(=O)n(C)cc(c23)-c2cc(CS(C)(=O)=O)ccc2N1c1ccc(F)cc1F (single isomer, unassigned)                  y
22  Cc1ccc(OC(=O)N2Cc3c[nH]c4c(=O)n(C)cc(c34)-c3cc(CS(C)(=O)=O)ccc32)cc1                  n
23  CNCCCC1c2c[nH]c3c(=O)n(C)cc(c23)-c2cc(CS(C)(=O)=O)ccc2N1c1ccc(F)cc1F (stereo not drawn)                  n
24  CC(=O)NC1CCC(N2Cc3c[nH]c4c(=O)n(C)cc(c34)-c3cc(CS(C)(=O)=O)ccc32)CC1 (mixture of isomers)                  n
25  Cn1cc2c3c(c[nH]c3c1=O)C(c1cccc3ccccc13)N(c1ccc(F)cc1F)c1ccc(CS(C)(=O)=O)cc1-2 (stereo not drawn)                  n
26  Cn1cc2c3c(c[nH]c3c1=O)CN(C(=O)Nc1ccc(F)c(C(F)(F)F)c1)c1ccc(CS(C)(=O)=O)cc1-2                  n

====

This listing pairs compounds with measured pKi.
Target: BRD4 (BDII_E352-M457) (Homo sapiens, UniProt O60885)
Construct: protocol; made in house
Assay: TR-FRET bromodomain binding assay, second bromodomain of BRD4
Settings: TR-FRET assay protocol G (compound 0.92 μM-15 pM); 30 nM probe
pKi: −log10 of the molar value.
Reported endpoint: pKi

> print(dat)
                                    compound  value.qualifier  endpoint.value
 1  Cn1cc2c3c(c[nH]c3c1=O)CN(CCc1ccc3c(c1)OCO3)c1c(F)cc(F)cc1-2                =            7.45
 2  Cn1cc2c3c(c[nH]c3c1=O)CN(S(=O)(=O)c1ccc(Oc3ccccc3)cc1)c1ccc(CS(C)(=O)=O)cc1-2                <            6.39
 3  Cn1cc2c3c(c[nH]c3c1=O)CN(C(=O)CC(C)(C)C)c1c(F)cc(F)cc1-2                =            8.33
 4  CNC(=O)CCC1c2c[nH]c3c(=O)n(C)cc(c23)-c2cc(CS(C)(=O)=O)ccc2N1c1ccc(F)cc1F (stereo not drawn)                =            8.86
 5  Cn1cc2c3c(c[nH]c3c1=O)CN(C(=O)CCc1ccccc1)c1ccc(CS(C)(=O)=O)cc1-2                =            7.95
 6  [2H]C1([2H])c2c[nH]c3c(=O)n(C)cc(c23)-c2cc(CS(C)(=O)=O)ccc2N1c1ccc(F)cc1                =            8.93
 7  Cn1cc2c3c(c[nH]c3c1=O)CN(C(=O)c1ccc(F)cc1F)c1ccc(CS(C)(=O)=O)cc1-2                =            7.82
 8  CCOC(=O)C1c2c[nH]c3c(=O)n(C)cc(c23)-c2cc(CS(C)(=O)=O)ccc2N1c1ccc(F)cc1 (stereo not drawn) [Example 84]                =            8.41
 9  CCOC(=O)C1c2c[nH]c3c(=O)n(C)cc(c23)-c2cc(CS(C)(=O)=O)ccc2N1c1ccc(F)cc1 (stereo not drawn) [Example 85]                =            7.95
10  Cn1cc(-c2[nH]c3c(=O)n(C)cc4c3c2CN(c2ccccn2)c2ccc(S(C)(=O)=O)cc2-4)cn1                =            9.07
11  Cn1cc2c3c(c[nH]c3c1=O)C(c1cccc3cccnc13)N(c1ccc(F)cc1F)c1ccc(CS(C)(=O)=O)cc1-2 (stereo not drawn)                =            8.27
12  CC(C)C(=O)N1Cc2c[nH]c3c(=O)n(C)cc(c23)-c2cc(CS(C)(=O)=O)ccc21                =            8.84
13  COC(=O)NC1CCC(N2Cc3c[nH]c4c(=O)n(C)cc(c34)-c3cc(CS(C)(=O)=O)ccc32)CC1 (stereo not drawn) [Example 226]                =            8.73
14  Cn1cc2c3c(c[nH]c3c1=O)C(C(=O)NCCc1ccccc1)N(c1ccc(F)cc1F)c1ccc(CS(C)(=O)=O)cc1-2 (stereo not drawn)                =            7.38
15  CN(C)C(=O)c1cc(CS(C)(=O)=O)cc2c1N(c1ccc(F)cc1F)Cc1c[nH]c3c(=O)n(C)cc-2c13                =            8.42
